System: A673/TR/shEF
assay-explanation: cell viability (LOESS-normalised, relative to median of negative controls) (log2 ratio); higher = more viable cells (less compound effect), active = hit call of the paper (over 3 MAD below the median)
test-conditions: 0.25 µM; library screen: screen1; EWS-FLI1 expression: high (no doxycycline); treatment time: 72 h
In all, about 3,200 compounds went through this assay and about 300 (9.4%) showed activity. This excerpt belongs to a sample that is enriched for actives.
Labelling field: enter class 1 if recorded cell viability (log2) is less than 0.07. Enter class 0 if it equals or exceeds that cut-off.

In: Lab log: compare recorded cell viability (log2) with 0.07; is it strictly lower for COc1ccc2c(=O)c(-c3cc4c(cc3OC)OCO4)coc2c1 ?
Out: class 1

In: Regarding CC1(O)/C=C\C=C(\CO)C2CC(C)(C)C2(O)CC1 (stereo not given) , kindly confirm whether its cell viability (log2) is beneath 0.07.
Out: class 1

In: Could you please tell me whether cell viability (log2) recorded for COc1cccc(-c2cc(=O)c3ccccc3o2)c1N is less than 0.07?
Out: class 0

In: Quick check: cell viability (log2) of Nc1nc(N)c2nc(CNc3ccc(C(=O)N[C@@H](CCC(=O)O)C(=O)O)cc3)cnc2n1 under 0.07?
Out: class 1

In: API: query returns whether the molecule falls strictly under 0.07 in cell viability (log2). Query: O=c1cc(N2CCOCC2)oc2c(-c3ccccc3)cccc12
Out: class 0

In: I'd appreciate it if you could check whether Nc1nc(=O)c2nc(CNc3ccc(C(=O)N[C@@H](CCC(=O)O)C(=O)O)cc3)cnc2[nH]1 has cell viability (log2) smaller than 0.07.
Out: class 1

In: Field: below-cutoff. Rule: recorded cell viability (log2) strictly less than 0.07. Subject: CC1(C)C[C@H](O)[C@]23CC[C@@H](O)[C@@](C)(CC[C@@H]12)C3
Out: class 0

In: Confirm or reject: cell viability (log2) of Cc1c(NC(=O)Nc2ccc3ccccc3c2)c(=O)n(-c2ccccc2)n1C lies strictly below 0.07
Out: class 0

In: For this molecule, is cell viability (log2) lower than 0.07? OC[C@@H](O)[C@@H](O)C(O)[C@H](O)[C@@H](O)CO (stereo not given in full)
Out: class 1

In: Is cell viability (log2) strictly under 0.07 for the entry COc1cc(OC)c2c(=O)c(OC)c(-c3ccc(OC)c(OC)c3)oc2c1 ?
Out: class 1

These measurements were taken from the supplement of paper PMC6089552.
